Target: T1, human TIGIT on Jurkat cells (TIGIT/NFAT reporter Jurkat cells, BPS Bioscience #60538); Promega TIGIT Effector … (human, UniProt Q495A1 22-244)
T1 sequence (looked up): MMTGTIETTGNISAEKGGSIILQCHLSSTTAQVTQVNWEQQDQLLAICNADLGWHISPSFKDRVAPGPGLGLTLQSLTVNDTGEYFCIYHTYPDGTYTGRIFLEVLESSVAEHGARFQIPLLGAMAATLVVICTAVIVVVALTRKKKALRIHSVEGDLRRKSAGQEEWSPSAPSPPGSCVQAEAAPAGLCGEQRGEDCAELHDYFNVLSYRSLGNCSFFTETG
Experiment: cell-based or functional assay
Some binders, each annotated with its measured max. signal (% of 22G2).

Field: example entries. Status: answers known.
binder="43352p1.A11 (scFv, V domains shown) VH: DVQLVESGGGVVRPGESLRLSCAASGFTFSSHAMSWVRQAPGEGLEWVSLTSGNGVSAYYADSVKGRFTISRDNSKNTLYLQMNSLSAEDTAIYYCARGTYLISFFDYWGLGTLVTVSS VL: QSVLTQPPSASGTPGQRVTISCSGISAKIGNNYVSWYQQLPGTAPKLLIYFNNQRPSGVPDRFSGSKSGTSASLAISGLQSEDEADYYCASWDDSLNAWLFGGGTKLTVL" experimental_value="101 % of 22G2"
binder="43586p1.2.C11 (scFv, V domains shown) VH: EVQLLESGGGLVQPGGSLRLSCAASGFTFDDYVMSWVRQAPGKGLEWVSLINWNGDKTYCADSVKGRFTISRDNSKNTLYLQMNSLRAEDTAIYYCAKHWIVFQYGMDVWGQGTTVTVSS VL: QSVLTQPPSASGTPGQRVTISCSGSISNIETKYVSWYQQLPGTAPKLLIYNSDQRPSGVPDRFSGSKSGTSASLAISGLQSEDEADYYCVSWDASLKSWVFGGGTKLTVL" experimental_value="106 % of 22G2"
binder="43645p1.F11 (scFv, V domains shown) VH: EVQLLESGGGLVQPGGSLRLSCAASGFTFSSYWMSWVRQAPGKGLEWVSGIHISDSTYYADSVKGRFTISRDNSKNTLYLQMNSLRAEDTAVYYCAKGHTVLQYGMDVWGQGTTVTVSS VL: QSGLTQPPSASGTPGQRVTISCSGDISNTRNNYVSWYQQLPGTAPKLLIYRNSQRPSGVPDRFSGSKSATSASLAISGLQSEDEADYYCGTWDNTLNAWVFGGGTKLTVL" experimental_value="100 % of 22G2"

Field request: max. signal (% of 22G2) | item: 43586p1.2.C12 (scFv, V domains shown) VH: ESGGGLVQPGGSLRLSCAASGFTFSDYLMTWVRQAPGKGLEWVSTITWDGDRTYYADSVKGRFTISRDNSKNTLYLQMNSLRAEDTAVYYCAKHWTVFQYGMDVWGQGTTVTVSS VL: QSVLTQPPSASGTPGQRVTISCSGTISNIEIKYVSWYQQLPGTAPKLLIYGNHQRPSGVPDRFSGSKSGTSASLAISGLQSEDEADYYCSSWENDLKSWVFGGGTKLTVL 118 % of 22G2

// data source = patent US20230265187A1
